System: Escherichia coli
Details: Concentration 20 uM; ASSAY_TEST Inhibition of Bacterial Growth; detection method Absorption (OD600); MEDIA CAMHB; plate type 384well; NBS; CORNING #3640; time 18 hr
Description: Antibacterial activity against Escherichia coli ATCC 25922 (CO-ADD:GN_001); MIC in CAMBH media using NBS plates, by OD(600)
Measured potencies and affinities stand elsewhere.
Below, each of the molecules is paired with its reported Inhibition value.
Write the answer as a number in %, unit excluded.

Guide cases for Inhibition, answers given:
[
  {
    "molecule": "CN1CCC(=C2c3ccccc3C=Cc3ccccc32)CC1.Cl [CYPROHEPTADINE HYDROCHLORIDE]",
    "assay.result": 6.77
  },
  {
    "molecule": "CC12CCC(=O)C=C1CCC1C2CCC2(C)C1CCC2(O)C(=O)CO (centres undefined)",
    "assay.result": -7.68
  },
  {
    "molecule": "CC(=O)NCCCCCCNC(C)=O [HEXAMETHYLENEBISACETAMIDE]",
    "assay.result": 3.8
  }
]

Look at this molecule and give its reported Inhibition. CNCC(O)c1ccc(O)c(O)c1 (centres undefined) [RACEPINEPHRINE]
2.6

* * *

Tested on: Staphylococcus aureus
Conditions: Concentration 20 uM; ASSAY_TEST Inhibition of Bacterial Growth; detection method Absorption (OD600); MEDIA CAMHB; plate type 384well; NBS; CORNING #3640; time 18 hr
Description: Antibacterial activity against Staphylococcus aureus MRSA ATCC 43300 (CO-ADD:GP_020); MIC in CAMBH media, using NBS plates, by OD(600)
Results with a measured potency or affinity are listed apart.
Below, each of the compounds is paired with its reported Inhibition value.

[
  {
    "compound": "CC(c1cc2ccccc2s1)N(O)C(N)=O (stereo unspecified)",
    "Inhibition": "-21.42%"
  }
]

Hi! What's the reported Inhibition for NC(CO)(CO)CO.O=C(c1ccccc1)c1ccc2n1CCC2C(=O)O (stereo unspecified) on Staphylococcus aureus?
4.45%

Hi! What's the reported Inhibition for CC[N+](C)(CC)CCOC(=O)C(O)(c1ccccc1)C1CCCCC1.[Br-] (stereo unspecified) [OXYPHENONIUM BROMIDE] on Staphylococcus aureus?
12.65%

Hi! What's the reported Inhibition for `OCCN(CCO)c1nc(N2CCCCC2)c2nc(N(CCO)CCO)nc(N3CCCCC3)c2n1` on Staphylococcus aureus?
-23.93%

* * *

Test system: Staphylococcus aureus
Details: Concentration 20 uM; ASSAY_TEST Inhibition of Bacterial Growth; detection method Absorption (OD600); MEDIA CAMHB; plate type 384well; NBS; CORNING #3640; time 18 hr
Measured potencies and affinities stand elsewhere.
recorded.metric: Inhibition
Write the quantity with the unit trailing the number.

Guide cases for Inhibition, answers given:
[
  {
    "compound": "CCCc1c(OCCCCc2nnn[nH]2)ccc(C(C)=O)c1O",
    "Inhibition": "5.76%"
  },
  {
    "compound": "CC(C)(C)NC[C@H](O)COc1nsnc1N1CCOCC1.O=C(O)/C=C\\C(=O)O [TIMOLOL MALEATE]",
    "Inhibition": "2.99%"
  },
  {
    "compound": "CCCC(CCC)C(=O)O",
    "Inhibition": "9.7%"
  },
  {
    "compound": "CS(=O)(=O)O.Cc1ccc(NC(=O)c2ccc(CN3CCN(C)CC3)cc2)cc1Nc1nccc(-c2cccnc2)n1 [IMATINIB MESYLATE]",
    "Inhibition": "11.51%"
  },
  {
    "compound": "CCN(CC)CC(=O)Nc1c(C)cccc1C",
    "Inhibition": "9.46%"
  }
]

Kindly consider the entry below.
Look at this compound and give its reported Inhibition. CCN(CC)C(=O)[C@]1(c2ccccc2)C[C@@H]1CN.Cl [1R,2S-MILNACIPRAN HYDROCHLORIDE]
5.25%
